// provenance: PubChem BioAssay (NCI)

System: M14 melanoma
procedure.summary: NCI tumour cell line growth inhibition, 48 h; in the data active means GI50 below about 0.43 µM; inactive means the rest
Reply using exactly one outcome from TRUE = active, FALSE = inactive

These recorded examples may help you get a feel for the data.
[[record]]
compound = "NC1=NC(c2ccc(F)cc2)C2=C(N1)c1ccc3ccccc3c1OCC2 (stereo not drawn)"
assayed_system = "M14 melanoma"
qualitative_label = "FALSE"

[[record]]
compound = "COc1ccc(-n2c3c(c4c(CN(C)C)c(O)c(C)cc42)CCc2ccccc2C3=O)cc1"
assayed_system = "M14 melanoma"
qualitative_label = "FALSE"

[[record]]
compound = "COc1cc2c(cc1OCCCN1CCN(c3cc(=O)oc4c(C)c(OC)ccc34)CC1)N=C[C@@H]1CCCN1C2=O"
assayed_system = "M14 melanoma"
qualitative_label = "FALSE"


Look up the recorded call for CO/N=C(/COc1c(-c2ccccc2)oc2ccccc2c1=O)c1ccc(F)cc1 in this test.
FALSE

Look up the recorded call for O=C(Nc1cccc(-n2ccc3c(NC(=O)c4ccccc4)nccc32)c1)c1cc(N2CCOCC2)cc(C(F)(F)F)c1 in this test.
TRUE

Look up the recorded call for Cc1cn2c(=O)n(c1=O)Cc1ccccc1C2 in this test.
FALSE

Look up the recorded call for COc1ccc(-c2ccccc2)cc1-c1c(Nc2cc(Cl)cc(Cl)c2O)c(=O)c1=O in this test.
FALSE

Look up the recorded call for N=C(N)c1ccc(-c2ccc(-c3ccc(F)cc3)o2)o1 in this test.
FALSE

* * *

Test system: SF-268 CNS
procedure.summary: NCI tumour cell line growth inhibition, 48 h
Hi there, I'd appreciate the recorded TGI for every entry that follows.
Numbers only, in µM.

[[record]]
given_smiles = "OCc1ccc(Oc2c3ccccc3nc3occc23)cc1"
assayed_system = "SF-268 CNS"
value_unit = "µM"
value_observed = 66.7

[[record]]
given_smiles = "COc1ccc(C2=CN3CCC[C@H]3C=C2c2cc(O)c(OC)c(OC)c2)cc1OC"
assayed_system = "SF-268 CNS"
value_unit = "µM"
value_observed = 0.112

[[record]]
given_smiles = "O=[N+]([O-])c1ccc(N=Nc2c(O)[nH]c3ccccc23)cc1"
assayed_system = "SF-268 CNS"
value_unit = "µM"
value_observed = 58.7


Indicate its recorded TGI; the compound in question is C[C@H](CCC1=NCCN1)[C@H]1CC[C@H]2[C@@H]3CC[C@@H]4C[C@H](O)CC[C@]4(C)[C@H]3C[C@H](O)[C@]12C
20.5

* * *

Tested on: UO-31 renal
procedure.summary: NCI tumour cell line growth inhibition, 48 h
Hi there, I'd appreciate the recorded TGI for every entry that follows.

Worked set:
[[record]]
compound = "C[C@H](CCC1=NCCN1)[C@H]1CC[C@H]2[C@@H]3CC[C@@H]4C[C@H](O)CC[C@]4(C)[C@H]3C[C@H](O)[C@]12C"
value_observed = "52.6 µM"

[[record]]
compound = "CC1(C)Cc2c(Br)c(Br)c(Br)c(OCC(O)CN3CCOCC3)c2O1 (configuration not stated)"
value_observed = "27.4 µM"

[[record]]
compound = "CC(=O)Nc1ccc(-c2nnc(SCC(=O)Nc3ccccc3C)o2)cc1"
value_observed = "> 100 µM"

[[record]]
compound = "Cc1ccc2nc(Cl)c(/C=N/N3C(=O)/C(=C/c4ccc(N(C)C)cc4)N=C3c3ccccc3)cc2c1"
value_observed = "> 100 µM"

[[record]]
compound = "C=C1C(=O)O[C@H]2C[C@@H]1CCC1(C)OC1CC/C(C)=C/CC[C@H]2C (some centres not stated)"
value_observed = "86.6 µM"

[[record]]
compound = "CCCCCCN1CCN(Cc2ccc(N(CC)CC)cc2)C(=O)C1=O"
value_observed = "> 100 µM"

[[record]]
compound = "COC(=O)n1c(CBr)c(Br)c2ccccc21"
value_observed = "71.1 µM"

[[record]]
compound = "CN(C)CCn1c(=O)c2ccc3c4c(nn3CCN(C)C)c3ccccc3n(c1=O)c24"
value_observed = "2.42 µM"


Batch lookup, TGI per entry.
1. Cc1n(CC(=O)c2ccccc2)nc2sc(N)n[n+]12
2. CN1CCC(n2[nH]c(-c3ccccc3)c(Cc3ccccc3)c2=O)CC1

> 100 µM
> 100 µM

Batch lookup, TGI per entry.
1. CC1(C)[C@@H]2C[C@H]1C(Cc1cccc(C[C@H]3c4cc(-c5ccccn5)ncc4[C@H]4C[C@@H]3C4(C)C)c1)c1cc(-c3ccccn3)ncc12 (some centres not stated)
2. COC(=O)c1ccccc1CC(Cc1ccccc1)C(=O)OC (configuration not stated)
3. Clc1ncnc2c1ncn2CCCCCCCCCCCCn1cnc2c(Cl)ncnc21
4. Cc1cn2c(=O)n(c1=O)Cc1ccccc1C2
5. CCN1CCC(CC(=O)Nc2n[nH]c3nc(-c4cccs4)c(Br)cc23)CC1
6. O=C1C(N=Nc2ccc(-c3nc4ccccc4[nH]3)cc2)NC(=S)N1c1ccccc1 (configuration not stated)

["6.15 µM", "> 100 µM", "25.8 µM", "> 100 µM", "> 25 µM", "> 100 µM"]

Batch lookup, TGI per entry.
1. Cc1c(O)c(=O)ccn1CCO
2. O=C(NC1(C(=O)O)CC1c1ccccc1)c1ccccc1 (configuration not stated)
3. CC(C)C1=CC23CCC4C(C)(C(=O)O)CCCC4(C)C2CC1C(C(=O)O)C3C(=O)O (configuration not stated)
4. COc1ccc2c(c1)-c1oc3ccccc3c(=O)c1CO2
5. CC(=O)OC12CC(C)C3(O)C4C=C(C)C(=O)[C@@]4(O)CC(CO)=C[C@H]3C1C2(C)C (some centres not stated)

1: > 100 µM; 2: > 100 µM; 3: > 100 µM; 4: 88.4 µM; 5: > 1000 µM

Batch lookup, TGI per entry.
1. Cn1ccc(C(=O)NCCCCCNC(=O)c2ccn(C)c(=O)c2O)c(O)c1=O
2. NC(=O)CS(=O)CC(N)C(=O)O (configuration not stated)
3. C/C(N=Nc1nc2ccccc2o1)=C1/C=CC=CN1O
4. Cc1c(F)c(N)c2c(=O)cc(-c3ccc(NC(=O)C(N)CCCN=C(N)N)c(F)c3)oc2c1F (configuration not stated)

> 100 µM
> 100 µM
> 100 µM
> 55.8 µM

Batch lookup, TGI per entry.
1. COc1ccc(-c2cc(-c3ccccc3)c(C#N)c(=O)n2C2OC(COC(C)=O)C(OC(C)=O)C(OC(C)=O)C2OC(C)=O)cc1 (configuration not stated)
2. OCC(O)C(O)C(O)C(/C=N\Nc1ncnc2ccc(Br)cc12)=N/Nc1ncnc2ccc(Br)cc12 (configuration not stated)

> 100 µM
> 100 µM
